Below are compounds with their pKi as measured on Sodium-dependent dopamine transporter (Homo sapiens, UniProt Q01959).
Sequence (Q01959 whole entry): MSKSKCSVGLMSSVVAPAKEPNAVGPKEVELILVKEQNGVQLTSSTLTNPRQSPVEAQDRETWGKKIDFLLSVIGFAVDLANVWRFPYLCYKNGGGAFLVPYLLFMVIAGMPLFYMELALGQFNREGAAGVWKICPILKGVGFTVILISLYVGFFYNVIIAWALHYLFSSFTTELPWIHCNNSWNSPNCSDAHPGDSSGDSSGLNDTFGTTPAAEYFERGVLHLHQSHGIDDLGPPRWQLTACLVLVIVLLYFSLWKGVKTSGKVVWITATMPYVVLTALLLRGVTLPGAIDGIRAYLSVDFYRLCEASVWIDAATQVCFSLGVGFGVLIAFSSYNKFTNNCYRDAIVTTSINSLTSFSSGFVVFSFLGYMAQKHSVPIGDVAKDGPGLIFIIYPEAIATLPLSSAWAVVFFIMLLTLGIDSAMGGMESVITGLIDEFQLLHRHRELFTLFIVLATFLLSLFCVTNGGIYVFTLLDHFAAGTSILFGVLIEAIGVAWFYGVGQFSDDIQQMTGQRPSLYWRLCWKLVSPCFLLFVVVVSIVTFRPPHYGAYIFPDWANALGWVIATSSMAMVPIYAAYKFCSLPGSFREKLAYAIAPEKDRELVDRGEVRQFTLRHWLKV
pKi: −log10 of the molar value.

MOLECULAR_STRING	MEASURED_ON	pKi
CN1CCc2c(c3cccc4c3n2Cc2ccccc2C4)C1	Sodium-dependent dopamine transporter (Homo sapiens, UniProt Q01959)	< 5.00

Next item in the queue.
Fill blank: measured pKi of the compound CN1CCc2c(c3cccc4c3n2-c2ccccc2CC4)C1 is ____.
< 5.00

###

- MEASURED_ON: D(2) dopamine receptor (Homo sapiens)
- Sequence (P14416 whole entry): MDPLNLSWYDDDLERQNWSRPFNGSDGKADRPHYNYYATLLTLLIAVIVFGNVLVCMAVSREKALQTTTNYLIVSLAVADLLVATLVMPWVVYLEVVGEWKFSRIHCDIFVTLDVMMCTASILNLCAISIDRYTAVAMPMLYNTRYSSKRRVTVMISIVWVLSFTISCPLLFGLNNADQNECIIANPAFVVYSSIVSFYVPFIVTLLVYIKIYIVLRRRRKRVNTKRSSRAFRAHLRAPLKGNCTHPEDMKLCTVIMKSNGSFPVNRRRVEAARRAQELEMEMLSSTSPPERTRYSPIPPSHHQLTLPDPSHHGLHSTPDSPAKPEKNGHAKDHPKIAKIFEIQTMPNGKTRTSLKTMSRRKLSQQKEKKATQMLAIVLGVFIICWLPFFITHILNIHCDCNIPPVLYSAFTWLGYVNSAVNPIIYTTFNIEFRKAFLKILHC
- TEST_DESCRIPTION: Displacement of [3H]N-Methylspiperone from dopamine D2 receptor (unknown origin)
Reported Ki values for a set of molecules

MOLECULAR_STRING	Ki
CN1CCc2c(c3cccc4c3n2CCc2ccccc2-4)C1	> 10 µM

Next item in the queue.
Given the entry CN1CCc2c(c3cccc4c3n2Cc2ccccc2C4)C1 , what Ki was observed with D(2) dopamine receptor (Homo sapiens)?
> 10 µM
